Target: T1, human vascular endothelial growth factor receptor-2 Fc chimera (KDR-Fc) (human, UniProt P35968 20-764)
T1 construct: range 1-764; also called human VEGFR-2; hKDR; not shown: human IgG1 Fc
T1 sequence (P35968 20-764 limits assumed, change not shown, form in doubt): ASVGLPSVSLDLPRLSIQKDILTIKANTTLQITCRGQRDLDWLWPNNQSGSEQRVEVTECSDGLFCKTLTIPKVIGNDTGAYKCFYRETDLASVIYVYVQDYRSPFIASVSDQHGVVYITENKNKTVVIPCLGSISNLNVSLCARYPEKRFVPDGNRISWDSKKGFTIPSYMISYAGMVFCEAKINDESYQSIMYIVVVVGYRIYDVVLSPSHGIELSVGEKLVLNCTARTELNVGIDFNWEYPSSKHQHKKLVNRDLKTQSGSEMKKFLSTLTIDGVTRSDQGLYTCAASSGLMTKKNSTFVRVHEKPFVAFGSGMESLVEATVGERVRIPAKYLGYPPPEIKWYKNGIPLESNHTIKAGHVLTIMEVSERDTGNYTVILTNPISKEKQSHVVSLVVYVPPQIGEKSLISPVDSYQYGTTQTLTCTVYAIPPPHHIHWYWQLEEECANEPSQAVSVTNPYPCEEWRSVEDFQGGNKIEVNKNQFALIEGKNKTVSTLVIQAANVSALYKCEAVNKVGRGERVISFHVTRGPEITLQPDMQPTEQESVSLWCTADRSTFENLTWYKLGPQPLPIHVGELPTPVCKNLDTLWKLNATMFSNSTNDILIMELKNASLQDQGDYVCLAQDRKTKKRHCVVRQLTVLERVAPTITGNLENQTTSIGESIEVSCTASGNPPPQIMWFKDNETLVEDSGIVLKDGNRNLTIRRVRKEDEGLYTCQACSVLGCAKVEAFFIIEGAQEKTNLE
Experiment: binding to 1 nM KDR-Fc, % of input; radioactive equilibrium binding (assay not given)
For each record, write down the corresponding Binding to 1 nM KDR, %.
Numeric only. Scale: %

Report Binding to 1 nM KDR, %, nothing else, for this binder: E5 (designed binder, Del 1-8 10Fn3 clone; Flag tag of the radioactive-assay form not included) EVVAATPTSLLISWRHPHFPTRYYRITYGETGGNSPVQEFTVPLQPPTATISGLKPGVDYTITGYAVTDGQNGRLLNVPISINYRT 26

Report Binding to 1 nM KDR, %, nothing else, for this binder: K15 (designed binder, Del 1-8 10Fn3 clone; Flag tag of the assay form not included) EVVAATPTSLLISWRHPHFPTRYYRITYGETGGNSPVQEFTVPLQPPTATISGLKPGVDYTITGYAVTEVHHDREIKTPISINYRT 25

Report Binding to 1 nM KDR, %, nothing else, for this binder: E25 (designed binder, Del 1-8 10Fn3 clone; Flag tag of the radioactive-assay form not included) EVVAATPTSLLISWRHPHFPTRYYRITYGETGGNSPVQEFTVPLQPPTATISGLKPGVDYTITGYAVTLERNGRELMTPISINYRT 41

Report Binding to 1 nM KDR, %, nothing else, for this binder: E26 (designed binder, Del 1-8 10Fn3 clone; Tags not included) EVVAATPTSLLISWRHPHFPTRYYRITYGETGGNSPVQEFTVPLQPPTATISGLKPGVDYTITGYAVTVERNGRELMTPISINYRT 27

Report Binding to 1 nM KDR, %, nothing else, for this binder: E21 (designed binder, Del 1-8 10Fn3 clone; Flag tag of the radioactive-assay form not included) EVVAATPTSLLISWRHPHFPTRYYRITYGETGGNSPVQEFTVPLQPPTATISGLKPGVDYTITGYAVTWGYKDHELLIPISINYRT 47
